target: Cytochrome P450 3A4 (Homo sapiens) (UniProt P08684); assay: Cytochrome P450 family 3 subfamily A member 4 (CYP3A4) small molecule antagonists: luciferase qHTS assay (AID 1645841); details: P450-Glo CYP3A4 enzyme assay, luciferin luminescence; series mostly up to 57.4 µM; further: nearly all actives have a fitted effect of over 45% in size
Sequence (P08684 whole entry, looked up): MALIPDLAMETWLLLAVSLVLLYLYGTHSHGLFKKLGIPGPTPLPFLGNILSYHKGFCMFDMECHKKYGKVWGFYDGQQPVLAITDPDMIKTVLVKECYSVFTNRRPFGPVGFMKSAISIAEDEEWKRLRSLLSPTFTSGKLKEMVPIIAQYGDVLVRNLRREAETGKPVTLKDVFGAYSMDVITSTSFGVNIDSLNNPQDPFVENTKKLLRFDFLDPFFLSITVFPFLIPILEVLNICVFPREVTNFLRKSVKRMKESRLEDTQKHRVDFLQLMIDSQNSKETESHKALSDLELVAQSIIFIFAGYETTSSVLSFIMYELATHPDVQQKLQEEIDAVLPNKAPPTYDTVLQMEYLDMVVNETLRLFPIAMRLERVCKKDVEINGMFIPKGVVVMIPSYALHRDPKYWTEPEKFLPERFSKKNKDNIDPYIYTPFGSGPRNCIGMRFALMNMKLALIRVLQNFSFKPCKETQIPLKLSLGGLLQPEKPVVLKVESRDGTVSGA
Results filed as inconclusive are left out. Calls of active or inactive are those of the source. The call rests on the fitted dose curve; in most records, active means well fitted inhibition curve with a large enough effect in the repeat runs; inconclusive means weak or mixed curves; inactive means no such curve, though single readings can be large or run the other way.
Outcome codes: label 1 (active), label 0 (inactive)

| structure | classification |
| --- | --- |
| Clc1ccccc1N1CCNCC1 | label 0 |
| NC(=O)c1cc([N+](=O)[O-])cc([N+](=O)[O-])c1 | label 1 |
| C[C@]12CCC(=O)C=C1CC[C@@H]1[C@@H]2CC[C@]2(C)C(=O)CC[C@@H]12 | label 0 |
| COc1cccc([C@@]2(O)CCCC[C@@H]2CN(C)C)c1 | label 0 |
| CCN(CC)CCc1c[nH]c2ccccc12 | label 0 |
| Nc1ccc([As](=O)(O)O)cc1 | label 0 |
| O=[N+]([O-])O[C@H]1CO[C@H]2[C@@H]1OC[C@H]2O[N+](=O)[O-] | label 0 |
| C[C@]12CC[C@@H]3c4ccc(OC(=O)N(CCCl)CCCl)cc4CC[C@H]3[C@@H]1CC[C@@H]2O | label 0 |
